Recorded self-cleavage for the following variants
B1: HDV Ribozyme (parent)
chain: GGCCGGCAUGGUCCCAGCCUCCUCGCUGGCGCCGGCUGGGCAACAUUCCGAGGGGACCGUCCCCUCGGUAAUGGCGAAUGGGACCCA

Variants of: B1
Assay: self-cleavage, relative activity (ratio to wild type); higher = more cleavage; co-transcriptional
Please give only the number in your answer, with no unit.

Here's what some known entries look like.
>  <sequence content>
GGCCGGCAUGGUCCCAGCCUCCUCGCUGGCGCCGGUUGGGCAACAUUCCGAGGGGACCGUCCCCUAGGUAAUGGCGAAUGGGACCCA [C36U C66A]

>  <self-cleavage>
0.712

$$$$
>  <sequence content>
GGCCGGCAUGGUCCCAGCCUCCUCGCUGGCGCCGGCUGGGCAACAUUCCGAGAGGACCGUCCCCUCGGUAAUGGCGAAUGUGACCCA [G53A G81U]

>  <self-cleavage>
0.272

$$$$
>  <sequence content>
GGCCGGCAUGGUCCCAGCCUCCUCGCUGACGCCGGCUGGGCAACAUUCCGAGGGGACCGUCCCCUCGGUAAUGGCCAAUGGGACCCA [G29A G76C]

>  <self-cleavage>
0.256

$$$$
>  <sequence content>
GGCCGGCAUGGUCCCAGCCUCCUCGCUGGCGCCGGCUGGGCAACAUUCCGAGGGGACCGUCCCCUCGGUAGGGGCGAAUGGGACCCA [A71G U72G]

>  <self-cleavage>
0.516

$$$$
>  <sequence content>
GGCCGGCAUGGUCCCAGCCUCCUCGCUGGCGACGGCUGGGCAACAAUCCGAGGGGACCGUCCCCUCGGUAAUGGCGAAUGGGACCCA [C32A U46A]

>  <self-cleavage>
0.185

$$$$

Exercise: Recorded self-cleavage for GGCCGGCAUGGUCCCAGCCUCCUCGCUGGCGCCGGCUGGGCAACAUUCCGAGGGAACCGUCCGCUCGGUAAUGGCGAAUGGGACCCA [G55A C63G] , please?
Key: 0.632

Exercise: Recorded self-cleavage for GGCCGGCAUGGUCCCAGCCUCCGCGCUGGCGCCGGCUGGGCAGCAUUCCGAGGGGACCGUCCCCUCGGUAAUGGCGAAUGGGACCCA [U23G A43G] , please?
Key: 0.138
